Experimental Protocol: Single-dose pharmacokinetics in mice
Type: in vivo, male CD1 mice
Condition Set: male, CD1, mouse, plasma, po, 100 mg/kg
Endpoint Name: Tmax
Record the result as a number with its unit.

## Input # input molecule: CC(=O)N1CCC(C(=O)N2CCN3C(=O)c4cc(-c5ccccc5)ccc4NC(=O)C3C2)CC1 (stereo not shown) ; wanted: its Tmax
## Output 1.7 h

###

Target Under Test: CYP1A2 (Homo sapiens, UniProt P05177)
Sequence (P05177 whole entry): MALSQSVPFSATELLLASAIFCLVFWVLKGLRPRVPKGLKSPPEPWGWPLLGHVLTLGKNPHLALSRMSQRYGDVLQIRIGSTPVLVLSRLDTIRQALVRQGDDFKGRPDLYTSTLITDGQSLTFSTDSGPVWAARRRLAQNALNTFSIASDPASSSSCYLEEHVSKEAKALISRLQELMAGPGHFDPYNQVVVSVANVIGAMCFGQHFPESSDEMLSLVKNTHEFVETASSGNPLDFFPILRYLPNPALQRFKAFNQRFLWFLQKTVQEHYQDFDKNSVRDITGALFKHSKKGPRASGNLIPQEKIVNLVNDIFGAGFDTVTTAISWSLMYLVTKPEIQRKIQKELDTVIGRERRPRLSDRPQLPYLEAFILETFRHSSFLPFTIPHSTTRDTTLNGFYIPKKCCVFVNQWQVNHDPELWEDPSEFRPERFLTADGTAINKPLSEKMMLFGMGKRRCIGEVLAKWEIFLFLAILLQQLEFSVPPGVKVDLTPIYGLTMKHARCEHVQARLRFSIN
Experimental Protocol: Human liver microsome CYP inhibition assay, CYP1A2
Assay type: biochemical
Condition Set: human liver microsomes
Endpoint Name: inhibition at 5 min, 50 µM (%)
One number for each entry, in %.

## Input # input compound: CC(=O)N1CCC(C(=O)N2CCN3C(=O)c4cc(-c5ccccc5)ccc4NC(=O)C3C2)CC1 (stereo not shown) ; wanted: its inhibition at 5 min, 50 µM
## Output 5.2

Origin of measurements: paper PMC12777986
